test system: HCT-116; assay: NCI tumour cell line growth inhibition, 48 h
Activity calls are given as the source filed them. Rule as the data show it: active = GI50 up to about 1.1 µM and inactive = higher.
Listing: GI50 of selected compounds

Examples from the recorded data:
>  <Compound>
O=c1[nH]nc(-c2ccccc2)n1/N=C/c1cccc([N+](=O)[O-])c1

>  <Readout kind>
GI50

>  <Data value>
> 100 µM (inactive)

$$$$
>  <Compound>
CC(=O)CC(=O)N1CCSC1=S

>  <Readout kind>
GI50

>  <Data value>
> 10 µM (inactive)

$$$$

Enquiry: Please look at this compound and report its GI50: Cc1ccc(Nc2nc3c(=O)n(C)c(=O)n(C)c3nc2Nc2ccc(C)cc2)cc1
Return: 9.27 µM (inactive)

Enquiry: Could you please provide reported GI50 for CCOc1ccc(/N=N/c2c(-c3ccccc3)nn(C(=O)CC(=O)Nc3cccc(C)c3)c2-c2ccccc2)cc1 ? Thanks!
Return: 58.5 µM (inactive)
